Give kon for every item shown.
Biological target: T1, recombinant human VEGF165 (human, UniProt P15692-4 27-191)
T1 construct: also called hVEGF165; rhVEGF165
T1 sequence (P15692 other isoform, or with tags, fused parts or gaps limits assumed): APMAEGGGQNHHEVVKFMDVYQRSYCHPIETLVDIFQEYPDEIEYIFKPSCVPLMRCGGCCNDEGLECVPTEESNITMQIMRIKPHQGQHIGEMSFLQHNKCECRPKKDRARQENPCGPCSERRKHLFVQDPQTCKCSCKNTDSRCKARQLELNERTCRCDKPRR
Experiment: ka1; SPR Biacore T100, hVEGF165 on chip, Two State Reaction model
Numbers only, in M⁻¹ s⁻¹.

# count of solved cases: 3
VEGFBII024 (VHH, biparatopic bivalent VHH in one chain; also called VEGFBII23B04-40GS-86H09; VEGFBI024) EVQLVESGGGLVQTGDSLRLSCEVSGRTFSSYSMGWFRQAQGKEREFVVAISKGGYKYDSVSLEGRFTISKDNAKNTVYLQINSLKPEDTAVYYCASSRAYGSSRLRLADTYEYWGQGTQVTVSSGGGGSGGGGSGGGGSGGGGSGGGGSGGGGSGGGGSGGGGSEVQLVESGGGLVQAGGSLRLSCTASGSAFKSYRMGWFRRTPGKEDEFVASISWTYGSTFYADSVKGRFTMSRDKAKNAGYLQMNSLKPEDTALYYCAAGAQSDRYNIRSYDYWGQGTQVTVSS	300000
VEGFBII022 (VHH, biparatopic bivalent VHH in one chain; also called VEGFBII23B04-9GS-5B05) EVQLVESGGGLVQTGDSLRLSCEVSGRTFSSYSMGWFRQAQGKEREFVVAISKGGYKYDSVSLEGRFTISKDNAKNTVYLQINSLKPEDTAVYYCASSRAYGSSRLRLADTYEYWGQGTQVTVSSGGGGSGGGSEVQLVESGGGLVQPGGSLRLSCVASGIRFMSMAWYRQAPGKHRELVARISSGGTTAYVDSVKGRFTISRDNSKNTVYLQMNSLKAEDTAVYYCNTFSSRPNPWGAGTQVTVSS	1.2e+06
VEGFBII021 (VHH, biparatopic bivalent VHH in one chain; also called VEGFBII23B04-40GS-5B05) EVQLVESGGGLVQTGDSLRLSCEVSGRTFSSYSMGWFRQAQGKEREFVVAISKGGYKYDSVSLEGRFTISKDNAKNTVYLQINSLKPEDTAVYYCASSRAYGSSRLRLADTYEYWGQGTQVTVSSGGGGSGGGGSGGGGSGGGGSGGGGSGGGGSGGGGSGGGGSEVQLVESGGGLVQPGGSLRLSCVASGIRFMSMAWYRQAPGKHRELVARISSGGTTAYVDSVKGRFTISRDNSKNTVYLQMNSLKAEDTAVYYCNTFSSRPNPWGAGTQVTVSS	1.2e+06

Recorded kon of VEGFBII025 (VHH, biparatopic bivalent VHH in one chain; also called VEGFBII10E07-40GS-23B04) EVQLVESGGGLVQAGGSLRLSCAASGRTFSNYAMGWFRQAPGKERVLVADISSSGINTYVADAVKGRFTISRDNAKNTVYLQMNSLKPEDTAVYYCAASAWWYSQMARDNYRYWGQGTQVTVSSGGGGSGGGGSGGGGSGGGGSGGGGSGGGGSGGGGSGGGGSEVQLVESGGGLVQTGDSLRLSCEVSGRTFSSYSMGWFRQAQGKEREFVVAISKGGYKYDSVSLEGRFTISKDNAKNTVYLQINSLKPEDTAVYYCASSRAYGSSRLRLADTYEYWGQGTQVTVSS , please.
330000
